Reference for the values: the supplement of paper PMC6555819

Parameter: PBM binding z-score. Scope: all listed entries.
test system: PPARg homodimer (NR concentration 180 nM); assay: PBM binding z-score (relative to random genomic background probes); higher = stronger binding; sequences stand for … in GC…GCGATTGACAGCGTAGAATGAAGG
Kindly provide the number alone.

>>> numeric_result("TCGAGTAGGTTACCAACGGGGCATTCAGCTTTCT")
-0.456
>>> numeric_result("ACTAGCAGGCCACGGGTCACTCAAGATTAGTCCG")
0.555
>>> numeric_result("TAGCCTAGGTCAGATCGGGCCAGCATACGCTATA")
0.0554

Kindly indicate its recorded PBM binding z-score. Item: AGAACGAGGGCACACTGAGTTGATAGCAGAGTAG
0.871

Input ATACCAAGGTGATCGTGAGGTAGTTGATACTAAC , output reported PBM binding z-score.
-0.0605

Complete the entry with PBM binding z-score for ACTTACGGGTCAACGAGGTTATAGCACGCGTATA
2.55

Let me know recorded PBM binding z-score for ATATGAAGGTTAGCTGGGGTCATTCAGACTAGGC , thanks.
2.53

State, in one line, measured PBM binding z-score of TCTTGTAGGTCAACAGGAGGTTAAGAAAGATCGA
2.63

Supply recorded PBM binding z-score for GATACAGGTTCAGCTAGAGGCCAGAGTATGGAAA here.
0.61

Answer with the recorded PBM binding z-score for the sequence listed here: CCGAGTAGGTTATCGGGCATTCAGGCAACGGTGA
0.257

Give PBM binding z-score for TCATATAGGTAAAGGGGAAAGTCGAACGATATGA
0.621

Output PBM binding z-score of TCTGCTAGGTCAGATGGTCAGCTAACGAGCTGCC
0.276

---

test system: PPARg:RXRa IVT, anti-PPARg (NR concentration 270 nM, RXRa partner concentration 90 nM); test: PBM binding z-score (relative to random genomic background probes); higher = stronger binding; sequences stand for … in GC…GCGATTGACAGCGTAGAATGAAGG
Class t: PBM binding z-score at least 3. Class f: PBM binding z-score below 3.

>>> label_value("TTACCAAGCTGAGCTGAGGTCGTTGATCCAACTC")
"f"
>>> label_value("AGAATGAGGTTATGATCAGGGAAACAGAATACAT")
"f"
>>> label_value("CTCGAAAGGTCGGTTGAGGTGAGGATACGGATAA")
"f"
>>> label_value("CAAACTAGGTCACGGTCAAAGTCGGTTTGTGCCA")
"t"
>>> label_value("ATCTCTAGGCAAAGATAGTTCAGTGAATGCAAAT")
"f"

Kindly consider the entry below.
Exam item: decide whether the reported PBM binding z-score for TGAATGAGGTAATAAGATCAGGGAACGTTGCAAA is at least 3.
f

---

test system: RXRa homodimer (NR concentration 180 nM); assay: PBM binding z-score (relative to random genomic background probes); higher = stronger binding; sequences stand for … in GC…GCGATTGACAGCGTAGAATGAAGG
Measured PBM binding z-score of individual entries
Write the value as a bare number.

Worked set:
>>> numeric_result("TCAGACAGGTGAAGGTAATTCAGGTACGCAGTCG")
1.08
>>> numeric_result("ATATGTAGGTTACATCCGGGTTATTCAGGCTATG")
1.84
>>> numeric_result("CGTCAAAGTTCAAGGGAACGTAACAGAAAGCAGC")
4.17

Identify the reported PBM binding z-score for the following entry. CTCGAAAGGTCGGCTGAGGTGAGTATACGGATAA
3.44

Identify measured PBM binding z-score associated with ACTCGGAGGACAAAGGTCGGAGCTACGCCAGTGA
2.2

Give a short answer stating reported PBM binding z-score for ACTAGCAGGCCAAGTTTGGGTCTCTCAAACAAAG .
-0.754

---

tested on: VDR homodimer (NR concentration 270 nM); experiment: PBM binding z-score (relative to random genomic background probes); higher = stronger binding; sequences stand for … in GC…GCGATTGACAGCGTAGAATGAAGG
QUANTITY_NAME: PBM binding z-score
# answer = number (no unit)

>>> numeric_result("ATATGTAGGTTACATCCGGATCATTCAGGCTATG")
0.331
>>> numeric_result("GCTTGTAGATCACGGTTAAGAAAGACTAAGCTAA")
-0.582
>>> numeric_result("GATTGTAGATCAAGGTTAAGAAAGACTAAGCTAA")
-0.0253

Next, consider the following sequence.
Please look at this sequence and report its PBM binding z-score: CCTTACGGGTCACTGAAAGGTTATAGCATTTGGA
1.14

---

test system: RXRa DBDmut IVT, anti-RXR (DBD mutation: RXRa K156A/R161A, NR concentration 90 nM); assay: PBM binding z-score (relative to random genomic background probes); higher = stronger binding; sequences stand for … in GC…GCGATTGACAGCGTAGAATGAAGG
QUANTITY_NAME: PBM binding z-score
Output: the number by itself.

Some entries whose results are on file:
>>> numeric_result("AGATTGAGGTTATTAAGATCAGGGAATTGCGGTC")
1.55
>>> numeric_result("GCTTGTAGATCAAGGTCAAGAAAGACTAAGCTAA")
1.03
>>> numeric_result("CCGACTGGGGCGAAGGTTACCATACTCAGTACGA")
-0.021
>>> numeric_result("TCATAGAGGTAAATGCTAGGTGAAAGTCCGATCT")
0.932
>>> numeric_result("CAAACTAGGTCAAGAGGTCAAAGTGCGCTTCCCG")
3.2
>>> numeric_result("TCAGACAGGTGAAGGTAACTCAGGTACGCAGTCG")
1.37
>>> numeric_result("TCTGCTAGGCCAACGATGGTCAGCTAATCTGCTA")
-0.26
>>> numeric_result("TCTGCTAGGTCAACGATGGTCAACTAATCTGCTA")
1.32

Could you now consider this next sequence?
For ACAGACAGGTGAGAGAAGGTAACTCAGCTGGACG , write its PBM binding z-score.
-0.484

---

system: RARg homodimer (NR concentration 270 nM); assay: PBM binding z-score (relative to random genomic background probes); higher = stronger binding; sequences stand for … in GC…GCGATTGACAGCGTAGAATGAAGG
The following sequences are listed with their measured PBM binding z-score values.

Provide only the value of recorded PBM binding z-score for TCTAATTGGTCAAAGGTCACACACTCGAAATGCG
6.41

Return value of PBM binding z-score for input GCGACTGGGGCATCAGCAGGTCACCATAACTTAA , no commentary.
2.47

Respond only with PBM binding z-score recorded for TCTTGCAGATCAACAGGAGGTTAAGAAAGATCGA
0.138

# return recorded PBM binding z-score for entry TATACAGGGTCAAAGCCCAGAGTACGAATGTCGA
4.63

For ACAGACAGGTGATTGAAGGTAACTCAGCTGGACG , write its PBM binding z-score.
0.419

Please give measured PBM binding z-score of the following entry: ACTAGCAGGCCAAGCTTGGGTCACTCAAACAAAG
1.49

Report PBM binding z-score for TTAATGAGGTTAAAGATCAGGGAACGTGGCGTCG
1.52

---

system: RXRa homodimer (NR concentration 180 nM); assay: PBM binding z-score (relative to random genomic background probes); higher = stronger binding; sequences stand for … in GC…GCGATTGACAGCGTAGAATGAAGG
Rule: PBM binding z-score of 1 or more gives yes; anything lower gives no.

>>> label_value("GCAGACAGGAGAAACGCAGGTAACTCAGGGTGGC")
"no"
>>> label_value("CTCCCAAGGTGAACAAGGTCGTTGATTACTATTC")
"yes"
>>> label_value("ACAGACAGGTGAGTGAAGGTAACGCAGCTGGACG")
"no"

Is PBM binding z-score for TATACAGGGTGAAAGGCCAGAGTACGAATGTCGA at or above 1?
yes

---

tested on: PPARg:RXRa 270nM:90nM, anti-RXR (NR concentration 270 nM, RXRa partner concentration 90 nM); experiment: PBM binding z-score (relative to random genomic background probes); higher = stronger binding; sequences stand for … in GC…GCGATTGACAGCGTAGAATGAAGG
QUANTITY_NAME: PBM binding z-score
Quick one: just the number, no unit, thanks!

>>> numeric_result("TCTAGCAGGCCAGAGGGTCACTCATGAGGTACGG")
2.87
>>> numeric_result("TAGCCTAGGTCACTCAGGGGCCAGTATAGAAAGC")
2.29

Please report PBM binding z-score for the following sequence: GCCGACAGGTGAAACGCAGGTAACTCAGGGTGGC
-0.333

Supply reported PBM binding z-score belonging to this sequence: CGTCCAAGGTCATGGTCAGTGAAAGAGACTCGAA
5.75

Answer with the recorded PBM binding z-score of CCTACTGGGCCTTTCAGAGGTCATTGATCATATG only.
2.22

For the sequence ACAGATAGGTGATGAAGGTAACTCAGGCTATCAT , give its measured PBM binding z-score value.
0.541

Write down PBM binding z-score measured for item AGAATGAGGTTATAGGTAGATCAGGGAAGAAAGT
4.73

Please report the measured PBM binding z-score for TCTGCCAGGTCAACGATGGTCAGCTAATCTGCTA
2.8

Hello, please tell me recorded PBM binding z-score for this one: CCGACTGGGGCAAGGTTACTATAACGCACAGCCA
2.98

Please give the documented PBM binding z-score of ACTAGCAGGCCACGTTTGGGTCACTCAAACAAAG
0.355

Could you please provide reported PBM binding z-score for TCTATTAATTGAAGGGCAACCGACGAGTCCGTTT ? Thanks!
1.99

Dear colleague, please send me the reported PBM binding z-score for CCTCGGAGGACAACAGGAGTTCAGAGCTGCCAGA when you can.
-0.913

Quick one: give measured PBM binding z-score for CGTCCAAGGTCAGCAGTTCAGTGAAAGCGACGTG
3.37
